target: horseradish peroxidase (HRP) tagged delF508-CFTR (Homo sapiens, UniProt P13569, DEL508-508); construct: expressed in transfected cells; experiment: Measurement of delF508-CFTR-HRP surface expression in CFBE41o- cells; assay type: cell-based; details: CFBE41o- cells; surface expression Amax; read-out: DelF508-CFTR-HRP Amax %;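 note: percent efficacy relative to reference corrector lumacaftor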
Sequence (P13569 with tags, fused parts or gaps DEL508-508): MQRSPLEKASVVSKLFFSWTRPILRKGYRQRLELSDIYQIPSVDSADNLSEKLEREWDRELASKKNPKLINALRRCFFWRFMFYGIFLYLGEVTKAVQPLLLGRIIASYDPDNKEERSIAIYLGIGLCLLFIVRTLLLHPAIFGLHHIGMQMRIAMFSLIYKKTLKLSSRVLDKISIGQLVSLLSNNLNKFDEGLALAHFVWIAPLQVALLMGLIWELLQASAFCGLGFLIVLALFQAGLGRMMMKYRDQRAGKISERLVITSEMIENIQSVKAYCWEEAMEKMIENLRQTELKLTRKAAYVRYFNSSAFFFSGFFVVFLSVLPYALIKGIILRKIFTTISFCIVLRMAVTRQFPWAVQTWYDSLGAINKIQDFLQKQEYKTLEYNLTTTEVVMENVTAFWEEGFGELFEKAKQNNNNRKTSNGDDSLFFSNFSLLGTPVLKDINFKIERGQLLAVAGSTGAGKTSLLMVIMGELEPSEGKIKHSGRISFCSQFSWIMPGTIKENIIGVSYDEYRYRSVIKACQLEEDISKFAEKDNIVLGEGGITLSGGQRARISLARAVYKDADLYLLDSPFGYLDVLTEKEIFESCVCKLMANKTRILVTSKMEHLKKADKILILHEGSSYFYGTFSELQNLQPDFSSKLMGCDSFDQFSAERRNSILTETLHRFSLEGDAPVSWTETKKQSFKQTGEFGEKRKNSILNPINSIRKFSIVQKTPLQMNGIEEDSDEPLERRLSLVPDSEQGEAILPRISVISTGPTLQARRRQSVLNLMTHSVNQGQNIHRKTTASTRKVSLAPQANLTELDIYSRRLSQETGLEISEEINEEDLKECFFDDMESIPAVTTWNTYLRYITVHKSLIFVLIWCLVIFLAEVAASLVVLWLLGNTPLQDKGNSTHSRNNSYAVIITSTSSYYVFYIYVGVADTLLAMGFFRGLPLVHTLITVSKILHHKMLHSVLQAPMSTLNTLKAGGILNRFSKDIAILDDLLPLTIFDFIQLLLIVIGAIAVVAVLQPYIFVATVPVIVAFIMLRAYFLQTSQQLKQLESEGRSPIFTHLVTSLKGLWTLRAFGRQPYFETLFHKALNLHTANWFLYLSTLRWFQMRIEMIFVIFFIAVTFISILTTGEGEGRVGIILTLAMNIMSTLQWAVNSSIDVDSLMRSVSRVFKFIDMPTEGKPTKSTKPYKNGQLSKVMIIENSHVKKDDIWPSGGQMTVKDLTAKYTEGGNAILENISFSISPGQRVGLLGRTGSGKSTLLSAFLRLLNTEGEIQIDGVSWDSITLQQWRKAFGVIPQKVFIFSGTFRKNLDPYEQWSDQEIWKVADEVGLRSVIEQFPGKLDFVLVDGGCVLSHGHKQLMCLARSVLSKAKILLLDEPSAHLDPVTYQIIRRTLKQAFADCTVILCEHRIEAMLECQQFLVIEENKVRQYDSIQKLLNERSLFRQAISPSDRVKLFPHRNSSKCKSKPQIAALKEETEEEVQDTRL
Measurement Label: Emax (%)

Examples with their reported Emax follow.
>>> df
                                   compound  quantitative_result
0  Cc1ccccc1-c1nc(NS(=O)(=O)c2cccc(N[C@@H]3CCC[C@H](C(=O)O)C3)n2)ccc1C(F)(F)F (relative stereo)                  392
1  Cc1ccccc1-c1nc(NS(=O)(=O)c2cccc(N3CCC4(CC4C(=O)O)C3)n2)ccc1C(F)(F)F (stereo not shown)                  644

1. CC(C)COc1ccccc1-c1nc(NS(=O)(=O)c2cccc(N3CCC[C@@](C)(C(=O)O)C3)n2)ccc1Cl
2. Cc1ccccc1-c1nc(NS(=O)(=O)c2cccc(N3CCC[C@@](C)(C(=O)O)C3)n2)ccc1C1CC1
[in] Which shows the larger Emax value: 1 or 2 ? # answer = label of selected item
[out] 1
(1: 905%, 2: 400%)
